# Measurement protocol: Oral bioavailability in Swiss Webster mouse at 70 mg/kg by HPLC-MS/MS analysis
# Format: ADME, organism-based
# Condition parameters: in vivo
Recorded endpoint: bioavailability
Param answer (str): number followed by unit.

Please fill in: bioavailability reported for CC(C)Oc1cc(NC(=N)c2ccccn2)ccc1-c1ccc(-c2ccc(NC(=N)c3ccccn3)cc2OC(C)C)o1 = 10.4%

---

# Measurement protocol: Cmax in Swiss Webster mouse at 66 mg/kg, po by HPLC-MS/MS analysis
# Type: ADME, organism-based
# Parameters: dose 66 mg/kg, route oral
# Condition parameters: in vivo
Recorded endpoint: Cmax (nM)
Enter your answer as a number in nM; do not include the unit.

So, CCOc1cc(NC(=N)c2ccccn2)ccc1-c1ccc(-c2ccc(NC(=N)c3ccccn3)cc2OCC)o1 ? Its Cmax was 400
